Field: Assay Signal (percent). Provide a value for each of the molecules that follow.
- assay system: JARID1B (Homo sapiens, UniProt Q9UGL1)
- Construct: The FLAG tagged full length JARID1B enzyme was expressed in Sf21 insect cells using FLAG-JARID1B baculoviruses; FLAG (N); made in house; host or cells: Sf21 insect cells (baculovirus)
- Sequence (Q9UGL1 whole entry): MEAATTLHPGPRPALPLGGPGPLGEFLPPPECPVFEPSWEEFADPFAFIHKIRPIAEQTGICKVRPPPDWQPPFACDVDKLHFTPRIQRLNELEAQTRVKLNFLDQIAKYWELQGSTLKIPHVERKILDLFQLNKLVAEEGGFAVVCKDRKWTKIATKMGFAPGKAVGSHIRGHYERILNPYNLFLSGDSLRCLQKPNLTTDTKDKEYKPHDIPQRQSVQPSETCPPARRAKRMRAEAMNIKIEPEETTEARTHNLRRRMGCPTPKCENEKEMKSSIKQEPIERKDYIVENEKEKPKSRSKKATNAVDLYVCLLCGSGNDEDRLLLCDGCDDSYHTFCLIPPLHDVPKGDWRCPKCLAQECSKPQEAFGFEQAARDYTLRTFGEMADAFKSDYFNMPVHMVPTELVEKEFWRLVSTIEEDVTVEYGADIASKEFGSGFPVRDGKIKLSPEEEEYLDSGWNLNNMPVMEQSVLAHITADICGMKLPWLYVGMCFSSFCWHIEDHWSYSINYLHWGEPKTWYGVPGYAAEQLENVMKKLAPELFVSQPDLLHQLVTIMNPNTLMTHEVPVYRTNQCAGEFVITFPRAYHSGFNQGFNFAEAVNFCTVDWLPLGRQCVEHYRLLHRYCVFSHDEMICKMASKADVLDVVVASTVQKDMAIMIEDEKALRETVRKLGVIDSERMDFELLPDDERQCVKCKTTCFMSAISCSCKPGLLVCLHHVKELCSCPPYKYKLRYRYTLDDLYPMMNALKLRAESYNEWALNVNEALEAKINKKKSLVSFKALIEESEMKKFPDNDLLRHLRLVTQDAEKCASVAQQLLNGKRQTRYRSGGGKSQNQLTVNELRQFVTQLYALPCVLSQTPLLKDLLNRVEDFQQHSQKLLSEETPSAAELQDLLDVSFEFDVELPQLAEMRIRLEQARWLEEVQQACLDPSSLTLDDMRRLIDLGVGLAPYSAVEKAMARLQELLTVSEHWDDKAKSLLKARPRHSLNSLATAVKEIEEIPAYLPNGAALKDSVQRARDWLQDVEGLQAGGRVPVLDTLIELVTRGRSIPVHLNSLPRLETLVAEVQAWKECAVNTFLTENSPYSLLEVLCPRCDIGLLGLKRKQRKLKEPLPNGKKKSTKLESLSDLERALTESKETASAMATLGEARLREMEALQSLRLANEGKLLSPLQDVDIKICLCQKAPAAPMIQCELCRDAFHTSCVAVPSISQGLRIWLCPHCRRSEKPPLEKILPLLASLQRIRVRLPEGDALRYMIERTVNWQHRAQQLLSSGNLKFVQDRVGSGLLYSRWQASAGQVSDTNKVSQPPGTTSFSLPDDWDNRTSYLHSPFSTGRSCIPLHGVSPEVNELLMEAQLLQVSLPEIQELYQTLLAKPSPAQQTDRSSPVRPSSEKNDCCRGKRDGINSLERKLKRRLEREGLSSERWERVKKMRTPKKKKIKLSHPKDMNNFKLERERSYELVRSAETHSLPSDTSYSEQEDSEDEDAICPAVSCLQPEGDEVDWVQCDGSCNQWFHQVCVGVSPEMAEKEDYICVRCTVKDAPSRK
- run description: FLAG-JARID1B histone demethylase assay with AlphaScreen detection (HTS and dose response);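 further: FLAG-tagged JARID1B at 4 nM acting on a biotinylated H3K4me3 peptide, demethylation read by AlphaScreen luminescence, with hits checked against bio-H3K4me2 without enzyme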;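 further: compound tested at 20 µM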
- Type: biochemical
- test settings: validation of HTS actives; effect of compound in JARID1B AlphaScreen assay
Answers are plain numbers, in %.

Past entries and their recorded results:
molecule	Assay Signal (percent), %
N.N.[Cl][Pt][Cl] [YU034538, CISPLATIN, reference compound]	49.17
C[C@](N)(Cc1ccc(O)c(O)c1)C(=O)O [YU033903, METHYLDOPA, reference compound]	50.21

Now examine the next entry.
Query for JARID1B (Homo sapiens, UniProt Q9UGL1): what Assay Signal (percent) does the record show for O=S(=O)(NN1CCOCC1)c1ccc(Cl)cc1 ?
20.47
